Value source: paper PMC6515058

- Test system: chicken P-gp
- experiment: Bidirectional transport of Rho123 across MDCK-chAbcb1 cell monolayer (P-gp inhibition)
- Format: cell-based
- assay.setup: chicken, control of 8 h series, no berberine
assay.metric: efflux ratio at 8 h, 4 mM
Could you respond with only the numeric value?

*Q* Report efflux ratio at 8 h, 4 mM for COC(=O)c1ccccc1-c1c2ccc(=N)cc-2oc2cc(N)ccc12 [Rho123, rhodamine 123] please.
*A* 7.24

----------
- Tested on: chicken P-gp
- experiment: Bidirectional transport of Rho123 across MDCK-chAbcb1 cell monolayer (P-gp inhibition)
- Type: cell-based
- assay.setup: chicken, control of 8 h series, no berberine; read-out: Papp BL→AP of Rho123
assay.metric: Papp B→A at 8 h, 4 mM (×10⁻⁶ cm/s)
Dear colleague, please return just the value in ×10⁻⁶ cm/s, with no unit written.

*Q* Any idea what Papp B→A at 8 h, 4 mM was measured for COC(=O)c1ccccc1-c1c2ccc(=N)cc-2oc2cc(N)ccc12 ?
*A* 60.1

----------
- System: chicken P-gp
- experiment: Bidirectional transport of Rho123 across MDCK-chAbcb1 cell monolayer (P-gp inhibition)
- Assay type: cell-based
- assay.setup: chicken, control of verapamil series, verapamil 0 µM; read-out: Efflux Ratio of rhodamine 123
assay.metric: efflux ratio at 2 h, 4 mM
Just the number, please, no unit attached.

*Q* Given the compound COC(=O)c1ccccc1-c1c2ccc(=N)cc-2oc2cc(N)ccc12 , what is its reported efflux ratio at 2 h, 4 mM?
*A* 6.24

----------
- System: chicken P-gp
- experiment: Bidirectional transport of Rho123 across MDCK-chAbcb1 cell monolayer (P-gp inhibition)
- Assay type: cell-based
- assay.setup: chicken, control of 2 h series, no berberine; read-out: Papp BL→AP of Rho123
assay.metric: Papp B→A at 2 h, 4 mM (nm/s)
Please reply with the bare figure in nm/s and do not write the unit itself.

*Q* Which Papp B→A at 2 h, 4 mM value belongs to COC(=O)c1ccccc1-c1c2ccc(=N)cc-2oc2cc(N)ccc12 ?
*A* 629

----------
- System: chicken P-gp
- experiment: Bidirectional transport of Rho123 across MDCK-chAbcb1 cell monolayer (P-gp inhibition)
- Type: cell-based
- assay.setup: chicken, control of verapamil series, verapamil 0 µM; read-out: Papp BL→AP of rhodamine 123
assay.metric: Papp B→A at 2 h, 4 mM (×10⁻⁶ cm/s)
Hi! Could you send only the number? It should be in ×10⁻⁶ cm/s, unit omitted.

*Q* Record lookup: for chicken P-gp, what Papp B→A at 2 h, 4 mM belongs to COC(=O)c1ccccc1-c1c2ccc(=N)cc-2oc2cc(N)ccc12 ?
*A* 54.4

----------
- System: chicken P-gp
- experiment: Bidirectional transport of Rho123 across MDCK-chAbcb1 cell monolayer (P-gp inhibition)
- Format: cell-based
- assay.setup: chicken, control of verapamil series, verapamil 0 µM; read-out: Papp AP→BL of rhodamine 123
- Method: The MDCK-chAbcb1 cell line stably expressing chicken P-gp was previously established in our laboratory. Briefly, the full-length chicken cDNA was first cloned into the pcDNA3.1 vector and then transfected into MDCK cells using Lipofectamine 2000. […] The samples were collected at 20, 40, 60, and 80 min from the receiving sides and analyzed by HPLC. […] The inhibition rate was calculated using the following equation:(5) Inhibition rate=ERcontrol−ERtreatment/ERcontrol
assay.metric: Papp A→B at 2 h, 4 mM (nm/s)
Report the figure in nm/s without appending any unit label.

*Q* Param item = COC(=O)c1ccccc1-c1c2ccc(=N)cc-2oc2cc(N)ccc12 [Rho123, rhodamine 123] ; retrieve measured Papp A→B at 2 h, 4 mM.
*A* 80.4

----------
- Tested on: chicken intestinal P-gp
- experiment: In situ single-pass intestinal perfusion of Rho123 in berberine-treated broilers
- Type: in vivo
- assay.setup: Arbor Acres, chicken, other: in situ single-pass intestinal perfusion
assay.metric: Papp at 100 min, 1.5 ng/mL

*Q* # input molecule: COC(=O)c1ccccc1-c1c2ccc(=N)cc-2oc2cc(N)ccc12 [Rho123, rhodamine 123] ; wanted: its Papp at 100 min, 1.5 ng/mL
*A* 123 ×10⁻⁶ cm/s

----------
- Tested on: chicken P-gp
- experiment: Bidirectional transport of Rho123 across MDCK-chAbcb1 cell monolayer (P-gp inhibition)
- Assay type: cell-based
- assay.setup: chicken, control of 2 h series, no berberine; read-out: Efflux ratio of Rho123
assay.metric: efflux ratio at 2 h, 4 mM
Could you respond with only the numeric value?

*Q* Which efflux ratio at 2 h, 4 mM is reported for this compound? COC(=O)c1ccccc1-c1c2ccc(=N)cc-2oc2cc(N)ccc12
*A* 7.28

----------
- Tested on: chicken P-gp
- experiment: Bidirectional transport of Rho123 across MDCK-chAbcb1 cell monolayer (P-gp inhibition)
- Format: cell-based
- assay.setup: chicken, control of 8 h series, no berberine; read-out: Papp AP→BL of Rho123
assay.metric: Papp A→B at 80 min, 4 mM (×10⁻⁶ cm/s)
The answer is to be given in ×10⁻⁶ cm/s; state only the numeric part.

*Q* What does the data say about its Papp A→B at 80 min, 4 mM? Entry: COC(=O)c1ccccc1-c1c2ccc(=N)cc-2oc2cc(N)ccc12 [Rho123, rhodamine 123]
*A* 8.62

----------
- experiment: Bidirectional transport of berberine across MDCK parental cell monolayer
- Type: in vitro ADME
- assay.setup: dog
assay.metric: efflux ratio at 4 h, 100 μM
Please reply with the number alone, leaving off any unit.

*Q* Return reported efflux ratio at 4 h, 100 μM; argument: COc1ccc2cc3[n+](cc2c1OC)CCc1cc2c(cc1-3)OCO2
*A* 1.24

----------
- Test system: chicken P-gp
- experiment: Bidirectional transport of berberine across MDCK-chAbcb1 cell monolayer
- Assay type: in vitro ADME
- assay.setup: chicken, with verapamil 100 μM
assay.metric: efflux ratio at 4 h, 100 μM
Write the number on its own, no unit after it.

*Q* Entry COc1ccc2cc3[n+](cc2c1OC)CCc1cc2c(cc1-3)OCO2 has what efflux ratio at 4 h, 100 μM?
*A* 1.13

----------
- Test system: chicken P-gp
- experiment: Bidirectional transport of Rho123 across MDCK-chAbcb1 cell monolayer (P-gp inhibition)
- Format: cell-based
- assay.setup: chicken, control of 2 h series, no berberine; read-out: Papp AP→BL of Rho123
assay.metric: Papp A→B at 80 min, 4 mM
# output: numeric value plus its unit

*Q* Observed Papp A→B at 80 min, 4 mM on chicken P-gp for COC(=O)c1ccccc1-c1c2ccc(=N)cc-2oc2cc(N)ccc12 [Rho123, rhodamine 123] , please.
*A* 8.86 ×10⁻⁶ cm/s
